Data origin: patent US8815950B2

assay: Solubility of levodopa in citrate buffer at varying pH and buffer strength; assay type: physicochemical; details: pH 4, aqueous buffer, Citrate buffer 0.15M pH4.0, read-out: Conc (levodopa solubility)
Readout: solubility (µg/mL)
# unit: µg/mL | format: bare number

Tell me the measured solubility of N[C@@H](Cc1ccc(O)c(O)c1)C(=O)O [Levodopa] , please.
3790

---

assay: Solubility of levodopa in citrate buffer at varying pH and buffer strength; assay type: physicochemical; settings: pH 4, aqueous buffer, Citrate buffer 1.0M pH 4.0, read-out: Conc (levodopa solubility)
Readout: solubility

Tell me the measured solubility of `N[C@@H](Cc1ccc(O)c(O)c1)C(=O)O` , please.
4650 µg/mL

---

Experiment: Solubility of levodopa in citrate buffer at varying pH and buffer strength
Type: physicochemical
Conditions: pH 3.5, aqueous buffer, Citrate buffer 0.45M pH3.5, read-out: Conc (levodopa solubility)
Experimental: Solutions were made using Citric acid and tribasic Sodium Citrate dihydrate Initially a 1.0 M citric acid solution was made by weighing out 19.2 g Citric acid (FW 192.1) into a 100 mL volumetric flask and diluting with HPLC grade water. This was repeated with the Sodium Citrate (FW 294.1), by weighting out 29.4 g of sodium citrate in into a 100 mL volumetric flask and diluting to 100 mL with water. A series of 8 of 20 mL scintillation vials were then labeled and prepared as follows: […]
Readout: solubility (µg/mL)
# unit: µg/mL | format: bare number

Tell me the measured solubility of N[C@@H](Cc1ccc(O)c(O)c1)C(=O)O [Levodopa] , please.
4510

---

assay: Solubility of levodopa in citrate buffer at varying pH and buffer strength; format: physicochemical; conditions: pH 1.5, aqueous buffer, Citrate buffer 1.0M pH 1.5, read-out: Conc (levodopa solubility)
Readout: solubility (mg/mL)
# unit: mg/mL | format: bare number

Tell me the measured solubility of N[C@@H](Cc1ccc(O)c(O)c1)C(=O)O [Levodopa] , please.
17.9

---

assay: Solubility of levodopa in citrate buffer at varying pH and buffer strength; assay type: physicochemical; conditions: pH 5, aqueous buffer, Citrate buffer 0.15M pH5.0, read-out: Conc (levodopa solubility)
Readout: solubility
Put down the number, then write its unit next to it.

Tell me the measured solubility of N[C@@H](Cc1ccc(O)c(O)c1)C(=O)O [Levodopa] , please.
3880 µg/mL

---

experiment: Solubility of levodopa in citrate buffer at varying pH and buffer strength; format: physicochemical; conditions: pH 4.5, aqueous buffer, Citrate buffer 0.45M pH4.5, read-out: Conc (levodopa solubility)
Readout: solubility (µg/mL)
# unit: µg/mL | format: bare number

Tell me the measured solubility of N[C@@H](Cc1ccc(O)c(O)c1)C(=O)O [Levodopa] , please.
4250

---

experiment: Solubility of levodopa in citrate buffer at varying pH and buffer strength; type: physicochemical; details: pH 6, aqueous buffer, Citrate buffer 1.0M pH 6.0, read-out: Conc (levodopa solubility)
Readout: solubility (mg/mL)
# unit: mg/mL | format: bare number

Tell me the measured solubility of N[C@@H](Cc1ccc(O)c(O)c1)C(=O)O [Levodopa] , please.
3.87

---

test: Solubility of levodopa in citrate buffer at varying pH and buffer strength; format: physicochemical; conditions: pH 4.5, aqueous buffer, Citrate buffer 0.15M pH4.5, read-out: Conc (levodopa solubility)
Readout: solubility (µg/mL)
# unit: µg/mL | format: bare number

Tell me the measured solubility of `N[C@@H](Cc1ccc(O)c(O)c1)C(=O)O` , please.
3880
